The entries below come with measured log10(IC50) values attached.
# Test system: CYP3A4 (Homo sapiens)
# Sequence (P08684 whole entry): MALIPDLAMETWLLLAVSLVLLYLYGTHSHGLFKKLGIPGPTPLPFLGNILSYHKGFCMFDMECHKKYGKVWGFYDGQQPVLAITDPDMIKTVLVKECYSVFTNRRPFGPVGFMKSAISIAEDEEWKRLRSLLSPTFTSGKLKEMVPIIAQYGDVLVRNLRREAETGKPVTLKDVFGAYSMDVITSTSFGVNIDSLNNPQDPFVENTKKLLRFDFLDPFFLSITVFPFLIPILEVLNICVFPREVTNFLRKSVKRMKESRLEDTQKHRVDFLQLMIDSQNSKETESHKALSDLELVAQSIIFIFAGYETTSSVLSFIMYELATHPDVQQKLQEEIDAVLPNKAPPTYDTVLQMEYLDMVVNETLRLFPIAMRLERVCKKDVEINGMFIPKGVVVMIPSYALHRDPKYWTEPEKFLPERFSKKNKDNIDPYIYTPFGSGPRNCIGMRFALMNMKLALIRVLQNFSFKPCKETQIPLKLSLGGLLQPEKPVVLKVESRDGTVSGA
# Test: Cocktail assay for CYPs, midazolam 1′-hydroxylation (CYP3A4), human liver microsomes
# Assay type: biochemical
# Parameters: 0.1 mg/mL protein human liver microsomes (BD Gentest); tissue BD Gentest; host or cells: human liver microsomes
# Condition notes: 2 μM midazolam, 0.1 mg/mL human liver microsomes, 10 min at 37° C.; read-out: CYP IC50 (nM) 3A4 (MDZ)
# Experimental: Determination of IC50 in a Cocktail Assay for CYPs 1A2, 2C9, 2C19, 2D6 and 3A4: This assay was performed in a standard 96-well plate design. […] The production of the metabolite of each probe substrate was determined after incubation for 10 min at 37° C. Quantitation of the metabolite peak area ratio against an internal standard (tolbutamide) was determined by LC/MS/MS analysis following acetonitrile treatment of the incubations. […]
Would you kindly interpret these values as log10 of IC50 expressed in nM?

Take a look at these entries with their results.
# input Assign log10(IC50) to the following record: CC(=O)Nc1ncc(S(=O)(=O)N2CCCC2c2ccc(-c3cncn3CCc3ccc(F)cc3)cc2)s1 (stereo not drawn)
# output 0.64

# input Assign log10(IC50) to the following record: O=C(c1ccc(N2CCOCC2)nc1)N1CCCC1c1cccc(-c2cncn2CCc2ccc(F)cc2)c1 (stereo not drawn)
# output 0.76

# input Assign log10(IC50) to the following record: O=C(C1CCOCC1)N1CCCC1c1ccccc1-c1cncn1CCc1ccc(F)cc1 (stereo not drawn)
# output 1.03

# input Assign log10(IC50) to the following record: CN1CCN(c2ncc(S(=O)(=O)N3CCc4c(cccc4-c4cncn4CCc4ccc(F)cc4)C3)s2)CC1
# output 0.65

# input Assign log10(IC50) to the following record: Fc1ccc(CCn2cncc2-c2ccccc2C2CCCN2)cc1 (stereo not drawn)
# output 1.64

# input Assign log10(IC50) to the following record: COc1ccc(OC)c(S(=O)(=O)N2CCCC2c2cccc(-c3cncn3CCc3ccc(F)cc3)c2)c1 (single isomer, unassigned) [Compound 53a]
# output 0.94

# input Assign log10(IC50) to the following record: CC(C)(C)OC(=O)N1CCCC1c1ccccc1-c1cncn1CCc1ccc(F)cc1 (stereo not drawn)
# output 0.83

# input Assign log10(IC50) to the following record: COc1ccc(OC)c(S(=O)(=O)N2CCCC2c2cccc(-c3cncn3CCc3ccc(F)cc3)c2)c1 (single isomer, unassigned) [Compound 53b]
# output 0.74

# input Assign log10(IC50) to the following record: O=S(=O)(NCCc1ccccc1-c1cncn1CCc1ccc(F)cc1)c1cccnc1
# output 2.14

# input Assign log10(IC50) to the following record: CN1CCCC1c1ccccc1-c1cncn1CCc1ccc(F)cc1 (single isomer, unassigned) [Compound 45b]
# output 1.36

New cases:
# input Assign log10(IC50) to the following record: O=S(=O)(c1cnc(Cl)c(Br)c1)N1CCCC1c1ccccc1-c1cncn1CCc1ccc(F)cc1 (stereo not drawn)
# output 1.70

# input Assign log10(IC50) to the following record: CC(=O)Nc1ncc(S(=O)(=O)NCc2ccc(-c3cncn3CCc3ccc(F)cc3)cc2)s1
# output 0.94

# input Assign log10(IC50) to the following record: C[C@H](c1ccc(F)cc1)n1cncc1-c1cccc2c1CCN(S(=O)(=O)c1cnc(N3CCN4C[C@H](O)C[C@H]4C3)s1)C2
# output 0.88

# input Assign log10(IC50) to the following record: O=C(c1cccnc1)N1CCCC1c1ccccc1-c1cncn1CCc1ccc(F)cc1 (single isomer, unassigned) [Compound 42a]
# output 1.81

# input Assign log10(IC50) to the following record: CN1CCCC1c1ccccc1-c1cncn1CCc1ccc(F)cc1 (single isomer, unassigned) [Compound 45a]
# output 1.16

====

# Test system: CYP1A2 (Homo sapiens)
# Construct: 0.1 mg/mL protein human liver microsomes (BD Gentest); tissue BD Gentest; host or cells: human liver microsomes
# Sequence (P05177 1-516): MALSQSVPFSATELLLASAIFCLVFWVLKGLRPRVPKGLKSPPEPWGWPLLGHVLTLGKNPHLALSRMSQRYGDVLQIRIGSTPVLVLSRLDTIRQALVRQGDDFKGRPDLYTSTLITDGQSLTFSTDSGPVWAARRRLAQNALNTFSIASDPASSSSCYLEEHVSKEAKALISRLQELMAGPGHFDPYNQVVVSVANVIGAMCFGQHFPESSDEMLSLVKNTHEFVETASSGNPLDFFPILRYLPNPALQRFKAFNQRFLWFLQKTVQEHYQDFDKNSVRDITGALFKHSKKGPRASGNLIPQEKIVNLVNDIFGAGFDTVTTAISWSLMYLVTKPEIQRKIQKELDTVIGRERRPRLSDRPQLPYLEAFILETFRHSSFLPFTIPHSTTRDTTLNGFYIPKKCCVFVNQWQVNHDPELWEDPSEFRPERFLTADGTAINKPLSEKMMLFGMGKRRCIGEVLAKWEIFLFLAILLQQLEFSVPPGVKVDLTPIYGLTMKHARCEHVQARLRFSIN
# Test: Cocktail assay for CYPs, phenacetin O-deethylation (CYP1A2), human liver microsomes
# Type: biochemical
# Condition notes: 10 μM phenacetin, 0.1 mg/mL human liver microsomes, 10 min at 37° C.; read-out: CYP IC50 (nM) 1A2
The entries below come with measured IC50 values attached.

# input Enter recorded IC50 with CYP1A2 (Homo sapiens) for CS(=O)(=O)N1CCCC1c1ccccc1-c1cncn1CCc1ccc(F)cc1 (single isomer, unassigned) [Compound 23a] here.
# output > 10000 nM

# input Enter recorded IC50 with CYP1A2 (Homo sapiens) for O=C(C1CC1)N1CCCC1c1ccccc1-c1cncn1CCc1ccc(F)cc1 (single isomer, unassigned) [Compound 44b] here.
# output > 10000 nM

# input Enter recorded IC50 with CYP1A2 (Homo sapiens) for C[C@H](NS(=O)(=O)c1cnc(N2CCN3C[C@H](O)C[C@H]3C2)s1)c1ccccc1-c1cncn1CCc1ccc(F)cc1 here.
# output > 10000 nM

New cases:
# input Enter recorded IC50 with CYP1A2 (Homo sapiens) for CC(=O)Nc1ncc(S(=O)(=O)N2CCCC2c2ccc(-c3cncn3CCc3ccc(F)cc3)cc2)s1 (stereo not shown) here.
# output 8560 nM

# input Enter recorded IC50 with CYP1A2 (Homo sapiens) for CC(c1ccccc1-c1cncn1CCc1ccc(F)cc1)N(C)S(=O)(=O)c1cnc(N2CCN(C)CC2)s1 (stereo not shown) here.
# output > 10000 nM

====

# Test system: CYP2C19 (Homo sapiens, UniProt P33261)
# Construct: 0.1 mg/mL protein human liver microsomes (BD Gentest); tissue BD Gentest; host or cells: human liver microsomes
# Sequence (P33261 whole entry): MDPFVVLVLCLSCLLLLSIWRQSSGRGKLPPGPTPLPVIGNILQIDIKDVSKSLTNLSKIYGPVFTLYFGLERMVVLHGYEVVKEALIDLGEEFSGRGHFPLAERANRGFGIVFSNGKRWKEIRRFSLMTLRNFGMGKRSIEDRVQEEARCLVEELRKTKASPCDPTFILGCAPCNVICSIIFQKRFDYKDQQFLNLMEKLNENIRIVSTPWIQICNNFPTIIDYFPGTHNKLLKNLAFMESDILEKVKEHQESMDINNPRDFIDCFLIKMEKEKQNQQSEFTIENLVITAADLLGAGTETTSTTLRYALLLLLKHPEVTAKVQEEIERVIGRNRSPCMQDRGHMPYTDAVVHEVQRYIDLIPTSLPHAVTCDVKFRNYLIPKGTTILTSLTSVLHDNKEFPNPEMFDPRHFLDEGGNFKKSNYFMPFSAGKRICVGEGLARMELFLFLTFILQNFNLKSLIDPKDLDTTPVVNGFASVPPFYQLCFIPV
# Test: Cocktail assay for CYPs, mephenytoin 4′-hydroxylation (CYP2C19), human liver microsomes
# Type: biochemical
# Condition notes: 30 μM mephenytoin, 0.1 mg/mL human liver microsomes, 10 min at 37° C.; read-out: CYP IC50 (nM) 2C19
Value kind: IC50 (nM)
Use nM as the unit, but write only the number.

Take a look at these entries with their results.
# input Assign IC50 to the following record: O=S(=O)(c1ccc(N2CCC(O)CC2)nc1)N1CCCC1c1cccc(-c2cncn2CCc2ccc(F)cc2)c1 (single isomer, unassigned) [Compound 57a]
# output 331

# input Assign IC50 to the following record: CC(=O)Nc1ncc(S(=O)(=O)N2Cc3cccc(-c4cncn4CCc4ccc(F)cc4)c3C2)s1
# output 155

# input Assign IC50 to the following record: CN1CCN(c2ncc(S(=O)(=O)N3CCc4c(cccc4-c4cncn4CCc4ccc(F)cc4)C3)s2)CC1
# output 2830

# input Assign IC50 to the following record: O=S(=O)(c1ccc(N2CCC(O)CC2)nc1)N1CCCC1c1ccccc1-c1cncn1CCc1ccc(F)cc1 (single isomer, unassigned) [Compound 32]
# output 3410

New cases:
# input Assign IC50 to the following record: O=S(=O)(c1cnc(Cl)c(Br)c1)N1CCCC1c1ccccc1-c1cncn1CCc1ccc(F)cc1 (centres unmarked)
# output 1890

# input Assign IC50 to the following record: CC(C)OC(=O)N1CCCC1c1ccccc1-c1cncn1CCc1ccc(F)cc1 (single isomer, unassigned) [Compound 39a]
# output 2730

# input Assign IC50 to the following record: CC(C)(C)OC(=O)N1CCCC1c1ccccc1-c1cncn1CCc1ccc(F)cc1 (centres unmarked)
# output 2300

====

# Test system: CYP1A2 (Homo sapiens)
# Construct: 0.1 mg/mL protein human liver microsomes (BD Gentest); tissue BD Gentest; host or cells: human liver microsomes
# Test: Cocktail assay for CYPs, phenacetin O-deethylation (CYP1A2), human liver microsomes
# Type: biochemical
# Condition notes: 10 μM phenacetin, 0.1 mg/mL human liver microsomes, 10 min at 37° C.; read-out: CYP IC50 (nM) 1A2
Value kind: IC50 (nM)
Use nM as the unit, but write only the number.

Take a look at these entries with their results.
# input Assign IC50 to the following record: CC(C)OC(=O)N1CCCC1c1ccccc1-c1cncn1CCc1ccc(F)cc1 (single isomer, unassigned) [Compound 39a]
# output 3840

# input Assign IC50 to the following record: O=S(=O)(c1ccc(N2CCOCC2)nc1)N1CCCC1c1ccccc1-c1cncn1CCc1ccc(F)cc1 (stereo not drawn) [Compound 29]
# output 3820

# input Assign IC50 to the following record: CC(=O)Nc1ncc(S(=O)(=O)N2CCCC2c2ccccc2-c2cncn2CCc2ccc(F)cc2)s1 (stereo not drawn) [Compound 21]
# output 5890

# input Assign IC50 to the following record: CC(C)(C)OC(=O)N1CCCC1c1ccccc1-c1cncn1CCc1ccc(F)cc1 (stereo not drawn) [Compound 38]
# output 3350

# input Assign IC50 to the following record: CS(=O)(=O)N1CCCC1c1cccc(-c2cncn2CCc2ccc(F)cc2)c1 (stereo not drawn) [Compound 51]
# output 1160

# input Assign IC50 to the following record: O=S(=O)(c1ccc(NCC(O)C2CC2)nc1)N1CCCC1c1ccccc1-c1cncn1CCc1ccc(F)cc1 (single isomer, unassigned) [Compound 34a]
# output 7020

We now examine a further compound.
# input Assign IC50 to the following record: CC(=O)Nc1ncc(S(=O)(=O)NCc2ccc(-c3cncn3CCc3ccc(F)cc3)cc2)s1 [Compound 12]
# output 2400
